TEST_METHOD_NOTES: Oral bioavailability in dog at 2 mg/kg, po
Format: ADME, organism-based, Canis lupus familiaris
TEST_PARAMETERS: in vivo

STRUCTURE	bioavailability / %
C[C@@H]1CC(c2cnc3c(C#N)nn([C@H](C)c4ccc(Cl)cc4Cl)c3n2)=CC[C@@H]1N1CCC[C@H]1CO	75

---

The reader will find reported pIC50 values listed item by item below.
EXPERIMENTAL_SYSTEM: C-C chemokine receptor type 4 (Homo sapiens, UniProt P51679)
Sequence (P51679 whole entry): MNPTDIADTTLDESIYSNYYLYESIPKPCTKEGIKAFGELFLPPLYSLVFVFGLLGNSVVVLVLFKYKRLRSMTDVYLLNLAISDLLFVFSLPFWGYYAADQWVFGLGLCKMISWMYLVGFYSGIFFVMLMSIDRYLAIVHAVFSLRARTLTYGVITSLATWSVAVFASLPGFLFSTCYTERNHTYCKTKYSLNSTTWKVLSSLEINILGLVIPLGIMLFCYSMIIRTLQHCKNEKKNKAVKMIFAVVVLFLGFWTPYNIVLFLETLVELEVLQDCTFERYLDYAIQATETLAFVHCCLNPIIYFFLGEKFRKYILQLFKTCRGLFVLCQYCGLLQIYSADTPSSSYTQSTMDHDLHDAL
TEST_METHOD_NOTES: Antagonist activity at human CCR4 expressed in rat chem-5 cells assessed as inhibition of CCL22-induced calcium flux measured at 2.5 secs time interval for 45 secs by fluorescence assay
pIC50: −log10 of the molar value.

COMPOUND	pIC50
CC1CN(c2cnc3cnn(C(C)c4ccc(Cl)cc4Cl)c3n2)CCC1N1CCCCC1 (stereo not drawn)	6.62
C[C@@H]1CC(c2cnc3c(C#N)nn([C@H](C)c4ccc(Cl)cc4Cl)c3n2)=CC[C@@H]1N1CCC[C@H]1C(C)(C)O	6.42
C[C@@H]1CN(c2cnc3c(C#N)nn([C@H](C)c4ccc(Cl)cc4Cl)c3n2)CC[C@@H]1N1CCC[C@H]1CO	7.57
